All values here come from paper PMC7704496.

Biological target: TmCsp (cold shock protein) (Thermotoga maritima, UniProt O54310 1-66)
Sequence (O54310 whole entry): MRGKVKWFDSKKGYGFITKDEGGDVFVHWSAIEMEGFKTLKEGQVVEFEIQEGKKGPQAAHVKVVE
Assay: Trp fluorescence quenching; 343 K; EMSA: 50 mM NaH2PO4 pH 6.5, 20 mM NaCl, 0.2 mM EDTA, room temperature 1 h, 20% gel in 1xTBE at 4 C; NMR: 50 mM sodium phosphate pH 6.5, 20 mM NaCl, 0.2 mM EDTA
Conditions: protein: recombinant; tags: none stated; chain copies: 2; label: none (5'-fluorescein in EMSA); single strand
pKd: −log10 of the molar value.
quantityName: pKd

>>> print(df.to_string())
                    binder  endpointresult
0  TTTTTTT (ssDNA) [(dT)7]            5.80
1  GGGGGGG (ssDNA) [(dG)7]            5.25
2  CCCCCCC (ssDNA) [(dC)7]            4.96
3  UUUUUUU (ssRNA) [(rU)7]            4.76
